B1: TPR 5TU (parent)
chain: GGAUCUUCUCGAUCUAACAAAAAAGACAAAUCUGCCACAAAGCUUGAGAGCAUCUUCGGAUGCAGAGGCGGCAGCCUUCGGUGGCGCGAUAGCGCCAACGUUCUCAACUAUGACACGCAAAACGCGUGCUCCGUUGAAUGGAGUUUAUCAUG

- Variants of: B1
- assay: polymerase ribozyme fitness, log enrichment relative to wild type (log ratio); higher = more active; in vitro selection for triplet polymerase activity
Variants at the floor of the assay were thinned out.
observed.property: polymerase ribozyme fitness (log ratio)
Returns: the value as a bare number; no unit string appended.

variant	polymerase ribozyme fitness (log ratio)
A121G U127C	-2.42
A40U C95U C129A U134C	-3.65
A47U U55G G94A	-0.633
A20U C32A C99A A115G A120U	-4.05
A52C A142G	-1.98
G94A G136C	-3.98

Q: Would you mind telling me what polymerase ribozyme fitness (log ratio) value was observed for A16U U56A A60U C93U G141U ?
Ans: -3.72
